// data source = patent US11076597B2

Molecular target: PYL2 receptor-HAB1 protein phosphatase complex (Arabidopsis thaliana, UniProt O80992)
Construct: made in house; host or cells: E. coli BL21 (DE3)
Sequence (O80992 14-188): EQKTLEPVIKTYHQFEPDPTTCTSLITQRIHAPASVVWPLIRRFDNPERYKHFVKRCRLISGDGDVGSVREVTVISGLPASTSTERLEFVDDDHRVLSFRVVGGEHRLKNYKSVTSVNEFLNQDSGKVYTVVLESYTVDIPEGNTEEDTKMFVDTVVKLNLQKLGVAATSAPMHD
Sequence (Q9CAJ0 172-511 partner limits assumed): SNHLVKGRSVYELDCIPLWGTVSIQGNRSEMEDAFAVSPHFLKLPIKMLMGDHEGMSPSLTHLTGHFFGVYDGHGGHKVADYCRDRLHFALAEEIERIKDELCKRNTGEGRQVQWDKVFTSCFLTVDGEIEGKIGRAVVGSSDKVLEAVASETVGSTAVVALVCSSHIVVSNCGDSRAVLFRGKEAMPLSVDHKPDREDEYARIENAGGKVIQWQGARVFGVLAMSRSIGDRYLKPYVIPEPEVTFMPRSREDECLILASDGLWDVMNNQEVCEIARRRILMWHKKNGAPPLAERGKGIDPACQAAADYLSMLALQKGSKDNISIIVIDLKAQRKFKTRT
Assay: AlphaScreen assay: promotion of PYL2 receptor binding to PP2C protein phosphatase HAB1
Conditions: FIG. 2f; 6×His-SUMO-tagged PYL2 (aa 14-188), Biotin-tagged HAB1 (aa 172-511), 100 nM each; pH 7.4; 1.5 h room temperature; read-out: EC50
METRIC: pEC50
Numbers only, as −log10 of the molar value.

Ask: Quick one: pEC50 for CCCN1C(=O)OCc2cc(NS(=O)(=O)Cc3c(F)c(F)c(C)c(F)c3F)ccc21 ?
Result: 7.72

* * *

Target: PYL2 receptor-HAB1 protein phosphatase complex (Arabidopsis thaliana, UniProt O80992)
Construct: made in house; host or cells: E. coli BL21 (DE3)
Assay: AlphaScreen assay, PYL2 receptor binding to HAB1
Assay type: biochemical
Details: fraction of the EC50 of ABA; FIG. 2c, 2e-2g
METRIC: EC50 value with PYL2 receptor-HAB1 complex as fraction of that of ABA

Illustrative cases are given below, each with its answer.
COMPOUND	RESULT
CCCN1C(=O)OC(C)c2cc(NS(=O)(=O)Cc3c(F)c(F)c(C)c(F)c3F)ccc21 (stereo not drawn)	1/29
Cc1c(F)c(F)c(CS(=O)(=O)Nc2ccc3c(c2)C(C)OC(=O)N3CCCF)c(F)c1F (stereo not drawn)	⅕-⅛
Cc1c(F)c(F)c(CS(=O)(=O)Nc2ccc3c(c2)C(C)OC(=O)N3CC(C)C)c(F)c1F (stereo not drawn)	⅕-⅛
Cc1c(F)c(F)c(CS(=O)(=O)Nc2ccc3c(c2)C(C)OC(=O)N3C(C)C)c(F)c1F (stereo not drawn)	⅕-⅛
CCCN1C(=O)OC(C)(C)c2cc(NS(=O)(=O)Cc3c(F)c(F)c(C)c(F)c3F)ccc21	1/15

Ask: Quick one: EC50 value with PYL2 receptor-HAB1 complex as fraction of that of ABA for CCN1C(=O)OC(C)c2cc(NS(=O)(=O)Cc3c(F)c(F)c(C)c(F)c3F)ccc21 (stereo not drawn) ?
Result: ⅕-⅛
